test system: EKVX NSCLC; experiment: NCI-60 one-dose screen, 48 h (100 = growth as untreated, 0 = no growth, -100 = all killed); conditions: 10 µM unless noted
About 83,000 compounds went through this panel and 20% of them were active in at least one assay; those are over-represented in the sample as a whole. The source made the active and inactive calls. The calls were made as follows: active = growth percent below 10; inactive = the rest.
RECORDED METRIC: growth

Below, 8 compounds whose answers are already recorded.
COMPOUND | ASSAY SYSTEM | RECORDED METRIC | READING
COc1cc2c(cc1-c1c(C)noc1C)ncc1nc(C3CCCCC3)n([C@H](C)COC(F)F)c12 | EKVX NSCLC | growth | 44.3% (inactive)
COc1ccc(S(=O)(=O)N2CCCCCC2)cc1NC(=O)c1[nH]c(C)c2c1CCCCC2=O | EKVX NSCLC | growth | 38.4% (inactive)
O=C1c2cccc3cccc(c23)C(=O)N1CCCCCN1CCN(CCCCCOc2ccc(-c3nc4ccc(N5CCOCC5)cc4[nH]3)cc2)CC1 | EKVX NSCLC | growth | 105% (inactive)
O=C1NC(=O)C(c2ccc(Cl)cc2Cl)N1 (configuration not stated) | EKVX NSCLC | growth | 113% (inactive)
CCN(CC)CCCCNc1c2ccc(Cl)cc2nc2ccc(OC)cc12 | EKVX NSCLC | growth | -8.96% (active)
CCC#CC[C@H](O)C/C=C1/C(=O)C=C[C@@H]1C/C=C\CCCC(=O)OC | EKVX NSCLC | growth | 23.7% (inactive)
CC(C)(C)c1cc(C(C)(C)C)cc(S(=O)(=O)Nc2cc3ccccc3cc2C(=O)NCCN)c1 | EKVX NSCLC | growth | 89.5% (inactive)
C#CCOc1ccc2ncnc(Nc3cccc(CNC(=O)C=C)c3)c2c1 | EKVX NSCLC | growth | 98.6% [8.25 µM] (inactive)

Then this compound:
growth measured on `O=C(/C=C/c1cccc([N+](=O)[O-])c1)c1ccc(O)c(CN2CCN(c3cc4c(cc3F)c(=O)c(C(=O)O)cn4C3CC3)CC2)c1` = 52.8% (inactive)
